- ASSAY_REMARKS: Cell Viability - LYMP2-017 (AID 972);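 further: cells exposed to compound for 24 hours at 37 °C; nearly all actives have a fitted effect of over 55% in size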
- ASSAY_CONDITIONS: LYMP2-017 lymphoblastoid cell viability; series mostly up to 92.2 µM
Inconclusive results are not listed. The source made the active and inactive calls. The call rests on the fitted dose curve; in most records, active means well fitted cell-killing curve with a large enough effect; inconclusive means small, poorly fitted or top-dose-only effect; inactive means flat fitted curve, though single readings scatter.
In this exercise, the only acceptable responses are class 1 for active, class 0 for inactive

GIVEN_SMILES | CLASS
CN(C)c1ccc(C(=C2C=CC(=[N+](C)C)C=C2)c2ccc(N(C)C)cc2)cc1 | class 1
NC(N)=NC(N)=NCCc1ccccc1 | class 0
O=C(O)c1cc(=O)[nH]c(=O)[nH]1 | class 0

Prompt: Recorded call for CC1=NN(c2ccccc2)C(=O)C1 ?
Completion: class 0

---

- ASSAY_REMARKS: Quantitative High-Throughput drug screen in 47 multiple myeloma cell lines against the NCATS MIPE library collection: KMS20_JCRB cell viability assay (AID 1918973); further: nearly all actives have a fitted effect of over 45% in size
- ASSAY_CONDITIONS: CellTiter-Glo ATP, 48 h; series mostly up to 45.8 µM
- Source text: PI: Beverly A. Mock Ph.D. Laboratory of Cancer Biology and Genetics, Center for Cancer Research, National Cancer Institute, National Institute of Health, Bethesda, Maryland […] 5; Detector; 425V; Luminescence; Viewlux PerkinElmer. […] 1. […] Briefly, the corresponding myeloma cell lines were screened in 1,536-well plates with 500 cells, 5-uL per well for inhibition of cell viability (assessed by measuring ATP levels with CellTiterGlo). […]
Inconclusive results are not listed. Calls of active or inactive are those of the source. Calls follow the shape of the dose curve; as a rule, active = well fitted cell-killing curve with a large enough effect; inconclusive = small, poorly fitted or top-dose-only effect, or effect the other way; inactive = no such curve, though single readings can be large or run the other way.
In this exercise, the only acceptable responses are true (1) = active, false (0) = inactive

COMPOUND | CLASS
NC(=O)N1c2ccccc2CC(=O)c2ccccc21 | false (0)
Nc1nc(F)nc2c1ncn2[C@@H]1O[C@H](CO)[C@@H](O)[C@@H]1O | true (1)
Cn1nnc2c(C(N)=O)ncn2c1=O | false (0)

Prompt: Recorded call for CCCc1nc(C)c2c(=O)[nH]c(-c3cc(S(=O)(=O)N4CCN(CC)CC4)ccc3OCC)nn12 ?
Completion: true (1)

Prompt: Recorded call for CC(N)C12CC3CC(CC(C3)C1)C2 (stereo unspecified) ?
Completion: false (0)

Prompt: Recorded call for CCn1cc(C(=O)O)c(=O)c2cc(F)c(N3CCNCC3)nc21 ?
Completion: false (0)

---

- ASSAY_REMARKS: qHTS Assay for Lipid Storage Modulators (AID 1519)
- ASSAY_CONDITIONS: Drosophila S3 cells, BODIPY lipid droplet/cell ratio, laser cytometry; measured here: lipid channel max response; cells loaded with oleic acid
Results filed as inconclusive are left out.
ASSAY_READOUT: max response
In your response, put the unit directly after the numeric value.

COMPOUND | OBSERVED_MEASUREMENT
CN1CCCC(n2nc(Cc3ccc(Cl)cc3)c3ccccc3c2=O)CC1 (stereo unspecified) | 2.11%
CC[C@H](NC(C)C)[C@H](O)c1ccc(O)c2[nH]c(=O)ccc12 | -21.9%
O=C(N[C@H](CO)[C@H](O)c1ccc([N+](=O)[O-])cc1)C(Cl)Cl | -6.22%
COC(=O)Nc1nc2ccc(C(=O)c3ccccc3)cc2[nH]1 | -17.4%
NNC(=O)c1ccncc1 | -8.54%

Let's switch to this compound now.
Prompt: So what does the record say about max response for CCN1CCCC1CNC(=O)c1cc(S(N)(=O)=O)ccc1OC (stereo unspecified) ?
Completion: 5.52%
